Tested on: IGROV1 ovarian
ASSAY_EXPLANATION: NCI tumour cell line growth inhibition, 48 h; in the data active = GI50 below about 0.43 µM; inactive = the rest
Return exactly one item of Yes = active, No = inactive

Lab log entry: CCCCCC(=O)N1c2ccccc2NC2=C(C(=O)CC(c3ccc(OC)c(OC)c3)C2)C1c1ccc(C(F)(F)F)cc1 (centres undefined) — outcome as called in the assay? No

Lab log entry: O=C(CNC(=O)c1cccc2ccccc12)Nc1ccccc1Oc1cccc(O)c1 — outcome as called in the assay? No

Lab log entry: CCCCCCn1c(-c2ccc(C(=O)O/N=C(\N)c3ccc(OC)cc3)cc2)nc(-c2ccccc2)c1-c1ccccc1 — outcome as called in the assay? Yes

Ref: PubChem BioAssay (NCI)
